# TARGET OR TEST SYSTEM: T1, thermostable variant of Streptomyces mobaraensis transglutaminase (Streptomyces mobaraensis, UniProt P81453 79-407)
# T1 sequence: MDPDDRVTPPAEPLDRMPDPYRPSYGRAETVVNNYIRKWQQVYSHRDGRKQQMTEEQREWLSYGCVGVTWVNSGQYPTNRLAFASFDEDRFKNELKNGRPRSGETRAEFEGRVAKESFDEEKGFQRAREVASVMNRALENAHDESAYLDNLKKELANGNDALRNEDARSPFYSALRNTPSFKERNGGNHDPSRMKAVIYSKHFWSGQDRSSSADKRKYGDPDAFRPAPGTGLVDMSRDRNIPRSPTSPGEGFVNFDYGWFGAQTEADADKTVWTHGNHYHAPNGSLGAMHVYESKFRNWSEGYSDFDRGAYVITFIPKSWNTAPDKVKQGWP
# ASSAY DETAILS: cell-based or functional assay
READOUT NAME: Improvement in pH responsiveness of inhibitory peptide relative to WT

-- ask Field request: Improvement in pH responsiveness of inhibitory peptide relative to WT | item: MDNGAGEETKSRAETYRLTADDVANINALNESAPAASSAGPSFRAP [pro-peptide variant Y12R]
-- reply > 1.2 fold

-- ask Requested field: Improvement in pH responsiveness of inhibitory peptide relative to WT. Item: MDNGAGEETKSYAETYRLTADDVANINALNESAPAASSAGPSFRAG [pro-peptide variant P46G]
-- reply > 5 fold

-- ask For the binder shown here, MDNGAGEETKSYAETYRLTADDVANINALNESAPAASHAGPSFRAP [pro-peptide variant S38H] , give the reported Improvement in pH responsiveness of inhibitory peptide relative to WT.
-- reply > 1.2 fold

-- ask // lookup Improvement in pH responsiveness of inhibitory peptide relative to WT for MDNGAGEETKSYAETYRLTADDVANINALNESAPAASSAGPSFRAL [pro-peptide variant P46L]
-- reply > 1.2 fold

-- ask Need Improvement in pH responsiveness of inhibitory peptide relative to WT of MDNGAGEETKS [pro-peptide truncation variant ΔY12-P46] , thanks.
-- reply > 1.2 fold

-- ask Data request, read-out Improvement in pH responsiveness of inhibitory peptide relative to WT, for MDNGAGGETKSYAETYRLTADDVANINALNESAPAASSAGPSFRAP [pro-peptide variant E7G]
-- reply > 5 fold
